Here, each record is paired with measured kon data.
- assayedSystem: T1, IL-18Rα/β heterodimer (Fc fused human IL-18Rα mixed and pre-incubated with Fc fused human IL-18Rβ) (human, UniProt Q13478 19-329; O95256 20-356, limits assumed)
- T1 construct: 6 µg/mL of each receptor mixed and pre-incubated 30 min before capture on anti-human IgG; also called alpha/beta heterodimer IL-18 receptor; not shown: Fc part
- T1 sequence (looked up) 1: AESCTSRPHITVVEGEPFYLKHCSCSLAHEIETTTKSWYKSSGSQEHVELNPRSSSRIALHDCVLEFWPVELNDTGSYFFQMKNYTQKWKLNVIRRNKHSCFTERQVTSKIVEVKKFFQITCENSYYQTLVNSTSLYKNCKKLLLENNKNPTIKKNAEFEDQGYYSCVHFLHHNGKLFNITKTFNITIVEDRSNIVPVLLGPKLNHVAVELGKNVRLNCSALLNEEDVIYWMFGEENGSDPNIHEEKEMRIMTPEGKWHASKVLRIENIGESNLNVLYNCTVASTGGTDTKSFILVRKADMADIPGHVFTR
- T1 sequence (looked up) 2: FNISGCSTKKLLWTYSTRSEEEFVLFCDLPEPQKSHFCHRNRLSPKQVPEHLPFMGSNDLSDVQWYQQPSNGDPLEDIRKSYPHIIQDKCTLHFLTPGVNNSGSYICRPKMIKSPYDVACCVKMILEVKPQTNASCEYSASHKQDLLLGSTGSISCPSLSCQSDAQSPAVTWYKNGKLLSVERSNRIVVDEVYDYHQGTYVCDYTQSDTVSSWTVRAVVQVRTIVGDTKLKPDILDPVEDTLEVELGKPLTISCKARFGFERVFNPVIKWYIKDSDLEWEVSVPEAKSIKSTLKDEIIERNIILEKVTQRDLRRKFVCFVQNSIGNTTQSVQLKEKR
- testSummary: SPR, Fc-IL-18Rα/Fc-IL-18Rβ mix captured, heterogeneous ligand model
Respond with the figure and its unit, in that order.

| binder | measuredAttribute | reading |
| --- | --- | --- |
| Modified IL-18 polypeptide of SEQ ID NO: 2 (E06K, K53A, S55A) (ligand) YFGKLKSKLSVIRNLNDQVLFIDQGNRPLFEDMTDSDCRDNAPRTIFIISMYADAQPRGMAVTISVKCEKISTLSCENKIISFKEMNPPDNIKDTKSDIIFFQRSVPGHDNKMQFESSSYEGYFLACEKERDLFKLILKKEDELGDRSIMFTVQNED | kon | 39200 M⁻¹ s⁻¹ |

As a next step, examine the binder that follows.
Exercise: Return kon for the following binder: Modified IL-18 polypeptide of SEQ ID NO: 70 (E6K, K53A, C38S, C76S, C127S) (ligand) YFGKLKSKLSVIRNLNDQVLFIDQGNRPLFEDMTDSDSRDNAPRTIFIISMYADSQPRGMAVTISVKCEKISTLSSENKIISFKEMNPPDNIKDTKSDIIFFQRSVPGHDNKMQFESSSYEGYFLASEKERDLFKLILKKEDELGDRSIMFTVQNED
Key: 43600 M⁻¹ s⁻¹
